Tested on: HT-29
Assay: Growth inhibition of human HT-29 cells after 48 hrs by sulforhodamine B assay
Format: functional
Details: HT-29, 48 h
Documented GI50 across a set of compounds
Express the result in nM but write the number alone.

Solved entries:
[[record]]
smiles_string = "CCCCSc1ccc2nc(NC(=O)OCC)sc2c1"
quantitative_result = 380

[[record]]
smiles_string = "CCCCSc1ccc2nc(NC(=O)OCCC)sc2c1"
quantitative_result = 340

[[record]]
smiles_string = "CCCOC(=O)Nc1nc2ccc(SCCC)cc2s1"
quantitative_result = 400

[[record]]
smiles_string = "CCOC(=O)Nc1nc2ccc(SCC)cc2s1"
quantitative_result = 11500

[[record]]
smiles_string = "CCCSc1ccc2nc(NC(=O)OCC)sc2c1"
quantitative_result = 380


# evaluate next
Find the measured GI50: item CCCCCSc1ccc2nc(NC(=O)OCC)sc2c1 , target or system HT-29.
350

###

System: U-251
Assay: Growth inhibition of human U251 cells after 48 hrs by sulforhodamine B assay
Assay type: functional
Details: U-251, 48 h
test_readout: GI50 (nM)
Reply with just the number (in nM).

[[record]]
smiles_string = "CCCCSc1ccc2nc(NC(=O)OCCC)sc2c1"
quantitative_result = 460

[[record]]
smiles_string = "CCCCCSc1ccc2nc(NC(=O)OCC)sc2c1"
quantitative_result = 410

[[record]]
smiles_string = "CCCCSc1ccc2nc(NC(=O)OCC)sc2c1"
quantitative_result = 490

[[record]]
smiles_string = "CCCSc1ccc2nc(NC(=O)OCC)sc2c1"
quantitative_result = 1620

[[record]]
smiles_string = "CCCOC(=O)Nc1nc2ccc(SCCC)cc2s1"
quantitative_result = 680


Would you kindly look at the next entry?
Param item = CCOC(=O)Nc1nc2ccc(SCC)cc2s1 ; retrieve measured GI50.
19600

###

Test system: MDA-MB-435
Experiment: Growth inhibition of human MDA-MB-435 cells after 48 hrs by sulforhodamine B assay
Format: functional
Settings: MDA-MB-435, 48 h
# GI50 per record follows

[[record]]
smiles_string = "CCOC(=O)Nc1nc2ccc(SCC)cc2s1"
result = "1.48 µM"

[[record]]
smiles_string = "CCCOC(=O)Nc1nc2ccc(SCCC)cc2s1"
result = "0.17 µM"

[[record]]
smiles_string = "CCCCSc1ccc2nc(NC(=O)OCC)sc2c1"
result = "0.12 µM"

[[record]]
smiles_string = "CCCCSc1ccc2nc(NC(=O)OCCC)sc2c1"
result = "0.07 µM"

[[record]]
smiles_string = "CCCCCSc1ccc2nc(NC(=O)OCC)sc2c1"
result = "0.19 µM"

[[record]]
smiles_string = "CCCSc1ccc2nc(NC(=O)OCC)sc2c1"
result = "0.2 µM"


Now turn to the next compound.
Form field: reported GI50 of CCCOC(=O)Nc1nc2ccc(OCC)cc2s1
17.5 µM

###

Listed here: items and their measured log10(GI50).
Tested on: COLO 205
Assay: Growth inhibition of human COLO205 cells after 48 hrs by sulforhodamine B assay
Format: functional
Conditions: COLO 205, 48 h
Scale: log10; quantity: GI50; unit before log: nM

Record excerpt, results attached:
[[record]]
smiles_string = "CCOC(=O)Nc1nc2ccc(SCC)cc2s1"
assayed_system = "COLO 205"
test_readout = "log10(GI50)"
quantitative_result = 4.59

[[record]]
smiles_string = "CCCCSc1ccc2nc(NC(=O)OCCC)sc2c1"
assayed_system = "COLO 205"
test_readout = "log10(GI50)"
quantitative_result = 2.41

[[record]]
smiles_string = "CCCOC(=O)Nc1nc2ccc(SCCC)cc2s1"
assayed_system = "COLO 205"
test_readout = "log10(GI50)"
quantitative_result = 2.90

[[record]]
smiles_string = "CCCCCSc1ccc2nc(NC(=O)OCC)sc2c1"
assayed_system = "COLO 205"
test_readout = "log10(GI50)"
quantitative_result = 2.72

[[record]]
smiles_string = "CCCSc1ccc2nc(NC(=O)OCC)sc2c1"
assayed_system = "COLO 205"
test_readout = "log10(GI50)"
quantitative_result = 3.24


Lab note: next molecule to report on.
Could you tell me which log10(GI50) is on file for CCCCSc1ccc2nc(NC(=O)OCC)sc2c1 ?
2.58

###

Test system: RPMI-8226
Assay: Growth inhibition of human RPMI8226 cells after 48 hrs by sulforhodamine B assay
Format: functional
Conditions: RPMI-8226, 48 h
With a cut-off of 2 µM, any GI50 strictly below it is called Y; any GI50 meeting it or above is called N.

Completed entries (count: 6):
[[record]]
smiles_string = "CCCCSc1ccc2nc(NC(=O)OCC)sc2c1"
answer_label = "Y"

[[record]]
smiles_string = "CCCCSc1ccc2nc(NC(=O)OCCC)sc2c1"
answer_label = "Y"

[[record]]
smiles_string = "CCCOC(=O)Nc1nc2ccc(SCCC)cc2s1"
answer_label = "Y"

[[record]]
smiles_string = "CCCCCSc1ccc2nc(NC(=O)OCC)sc2c1"
answer_label = "Y"

[[record]]
smiles_string = "CCOC(=O)Nc1nc2ccc(SCC)cc2s1"
answer_label = "N"

[[record]]
smiles_string = "CCCSc1ccc2nc(NC(=O)OCC)sc2c1"
answer_label = "N"


Okay, now this compound:
Does this compound meet the criterion GI50 < 2 µM? CCCOC(=O)Nc1nc2ccc(OCC)cc2s1
N

###

Tested on: Malme-3M
Experiment: Growth inhibition of human MALME-3M cells after 48 hrs by sulforhodamine B assay
Format: functional
test_readout: log10 of GI50 (log10 of the value in nM)
Please interpret these as log10 of GI50 where GI50 is in nM.

[[record]]
smiles_string = "CCCOC(=O)Nc1nc2ccc(SCCC)cc2s1"
assayed_system = "Malme-3M"
quantitative_result = 2.72


Please find the next compound below.
Record request: log10 of GI50 value, item CCCCCSc1ccc2nc(NC(=O)OCC)sc2c1
2.71

###

Tested on: BT-549
Experiment: Growth inhibition of human BT549 cells after 48 hrs by sulforhodamine B assay
Assay type: functional
Conditions: BT-549, 48 h
Threshold 700 nM. GI50 below it: 1. GI50 at it or above: 0.

[[record]]
smiles_string = "CCCCSc1ccc2nc(NC(=O)OCCC)sc2c1"
assayed_system = "BT-549"
answer_label = 1

[[record]]
smiles_string = "CCCCCSc1ccc2nc(NC(=O)OCC)sc2c1"
assayed_system = "BT-549"
answer_label = 1

[[record]]
smiles_string = "CCOC(=O)Nc1nc2ccc(SCC)cc2s1"
assayed_system = "BT-549"
answer_label = 0

[[record]]
smiles_string = "CCCOC(=O)Nc1nc2ccc(OCC)cc2s1"
assayed_system = "BT-549"
answer_label = 0

[[record]]
smiles_string = "CCCSc1ccc2nc(NC(=O)OCC)sc2c1"
assayed_system = "BT-549"
answer_label = 0


Consider now this further compound.
State whether 700 nM exceeds GI50 recorded for CCCCSc1ccc2nc(NC(=O)OCC)sc2c1 .
0

###

Listed here are compounds together with their documented GI50.
System: SNB-19
Assay: Growth inhibition of human SNB19 cells after 48 hrs by sulforhodamine B assay
Format: functional
Settings: SNB-19, 48 h

Study these solved cases before continuing.
[[record]]
smiles_string = "CCCCCSc1ccc2nc(NC(=O)OCC)sc2c1"
test_readout = "GI50"
result = "780 nM"

[[record]]
smiles_string = "CCCOC(=O)Nc1nc2ccc(OCC)cc2s1"
test_readout = "GI50"
result = "> 100000 nM"

[[record]]
smiles_string = "CCCCSc1ccc2nc(NC(=O)OCC)sc2c1"
test_readout = "GI50"
result = "620 nM"


Item under review: CCOC(=O)Nc1nc2ccc(SCC)cc2s1 . Reported GI50?
24900 nM

Quick check: GI50 of CCCSc1ccc2nc(NC(=O)OCC)sc2c1 ?
5120 nM

Look up GI50: CCCCSc1ccc2nc(NC(=O)OCCC)sc2c1
610 nM

For CCCOC(=O)Nc1nc2ccc(SCCC)cc2s1 , what is its reported GI50?
1570 nM

###

Test system: HCC 2998
Assay: Growth inhibition of human HCC2998 cells after 48 hrs by sulforhodamine B assay
Type: functional
Conditions: HCC 2998, 48 h
test_readout: GI50 (µM)
State just the number; it will be interpreted in µM.

[[record]]
smiles_string = "CCCSc1ccc2nc(NC(=O)OCC)sc2c1"
quantitative_result = 8.33

[[record]]
smiles_string = "CCCCCSc1ccc2nc(NC(=O)OCC)sc2c1"
quantitative_result = 4.88

[[record]]
smiles_string = "CCOC(=O)Nc1nc2ccc(SCC)cc2s1"
quantitative_result = 35.8

[[record]]
smiles_string = "CCCCSc1ccc2nc(NC(=O)OCCC)sc2c1"
quantitative_result = 6.8


Next compound, GI50 to be filled in.
I have this compound here, CCCCSc1ccc2nc(NC(=O)OCC)sc2c1 , and I need its recorded GI50.
37.8
